- Test system: Botrytis cinerea (B05.10)
- procedureSummary: Resazurin antifungal assay of 180 alpha-factor peptide variants towards Botrytis (Example 2)
- Format: cell-based
- experimentalSetup: % inhibition of fungal growth, Botrytis conidia, peptide 100 μM, resazurin
- Procedure: The antifungal activity of 180 alpha-factor peptide variants towards Botrytis was tested. Experimental design: […] Fungal conidia were harvested by scraping a Botrytis plate flooded with 1 ml water with 0.1% Tween 80 solution. […] The conidia concentration of the resulting solution was counted using a hemocytometer. […] Peptides were tested for activity against Botrytis, using the resazurin assay. […] Fluorescence was measured at 570/620 nm after 4 h of incubation with resazurin. […]
Peptide text beside a SMILES is read from it.
Known Inhibition at 100 μM of a selection of molecules
parameterMeasured: Inhibition at 100 μM (%)

INSERT INTO results (molecule, unitslabel, valueoperator, obsvalue) VALUES
  ('CSCC[C@H](NC(=O)[C@@H]1CCCN1C(=O)[C@H](CCC(N)=O)NC(=O)CNC(=O)[C@H](CC(N)=O)NC(=O)[C@H](CCCCN)NC(=O)[C@H](Cc1ccccc1)NC(=O)[C@H](CC(N)=O)NC(=O)[C@H](CC(C)C)NC(=O)[C@H](Cc1c[nH]c2ccccc12)NC(=O)[C@H](CCC(=O)O)NC(=O)[C@@H](N)CCCCN)C(=O)N[C@@H](Cc1ccc(O)cc1)C(=O)O [compound 145] (H-KEWLNFKNGQPMY-OH; N-terminus and C-terminus assumed)', '%', '<', 90),
  ('CSCC[C@H](NC(=O)[C@@H]1CCCN1C(=O)[C@H](CCC(N)=O)NC(=O)CNC(=O)[C@H](C)NC(=O)[C@H](CCCNC(=N)N)NC(=O)[C@H](CC(C)C)NC(=O)[C@H](CCCNC(=N)N)NC(=O)CNC(=O)[C@H](Cc1c[nH]c2ccccc12)NC(=O)[C@H](Cc1c[nH]cn1)NC(=O)[C@@H](N)CCCCN)C(=O)N[C@@H](Cc1ccc(O)cc1)C(=O)O [compound 68] (H-KHWGRLRAGQPMY-OH; N-terminus and C-terminus assumed)', '%', '=', 100),
  ('CSCC[C@H](NC(=O)[C@@H]1CCCN1C(=O)[C@H](CCC(N)=O)NC(=O)CNC(=O)[C@@H]1CCCN1C(=O)[C@H](Cc1c[nH]cn1)NC(=O)[C@H](CC(C)C)NC(=O)[C@H](CCCCN)NC(=O)[C@@H](NC(=O)[C@H](Cc1ccccc1)NC(=O)[C@H](Cc1c[nH]cn1)NC(=O)[C@@H](N)Cc1c[nH]c2ccccc12)C(C)C)C(=O)N[C@@H](Cc1ccc(O)cc1)C(=O)O [compound 74] (H-WHFVKLHPGQPMY-OH; N-terminus and C-terminus assumed)', '%', '=', 100),
  ('CSCC[C@H](NC(=O)[C@@H]1CCCN1C(=O)[C@H](CCC(N)=O)NC(=O)CNC(=O)[C@@H]1CCCN1C(=O)[C@H](CCCCN)NC(=O)[C@H](Cc1ccccc1)NC(=O)[C@H](CCCCN)NC(=O)[C@H](CC(C)C)NC(=O)[C@H](Cc1ccc(O)cc1)NC(=O)[C@H](Cc1c[nH]cn1)NC(=O)[C@@H](N)CCCCN)C(=O)N[C@@H](Cc1ccc(O)cc1)C(=O)O [compound 72] (H-KHYLKFKPGQPMY-OH; N-terminus and C-terminus assumed)', '%', '=', 100),
  ('CSCC[C@H](NC(=O)[C@@H]1CCCN1C(=O)[C@H](CCC(N)=O)NC(=O)CNC(=O)[C@@H]1CCCN1C(=O)[C@H](CCCCN)NC(=O)[C@H](CC(C)C)NC(=O)[C@@H](NC(=O)[C@H](CC(C)C)NC(=O)[C@H](Cc1ccc(O)cc1)NC(=O)[C@H](Cc1c[nH]cn1)NC(=O)[C@@H](N)CCCCN)[C@@H](C)O)C(=O)N[C@@H](Cc1ccc(O)cc1)C(=O)O [compound 102] (H-KHYLTLKPGQPMY-OH; N-terminus and C-terminus assumed)', '%', '=', 98.51),
  ('CC[C@H](C)[C@H](NC(=O)[C@H](CC(C)C)NC(=O)[C@H](Cc1c[nH]cn1)NC(=O)[C@@H]1CCCN1)C(=O)N[C@@H](CCC(N)=O)C(=O)N[C@@H](CC(C)C)C(=O)NCC(=O)N[C@@H](CC(C)C)C(=O)NCC(=O)N[C@@H](CCC(N)=O)C(=O)N1CCC[C@H]1C(=O)N[C@@H](CCSC)C(=O)N[C@@H](Cc1ccc(O)cc1)C(=O)O [compound 131] (H-PHLIQLGLGQPMY-OH; N-terminus and C-terminus assumed)', '%', '<', 90),
  ('CSCC[C@H](NC(=O)[C@@H]1CCCN1C(=O)[C@H](CCC(N)=O)NC(=O)CNC(=O)[C@@H](NC(=O)[C@H](CCCCN)NC(=O)[C@H](CC(C)C)NC(=O)[C@H](CO)NC(=O)CNC(=O)[C@H](Cc1c[nH]c2ccccc12)NC(=O)[C@H](Cc1c[nH]cn1)NC(=O)[C@@H](N)Cc1c[nH]c2ccccc12)C(C)C)C(=O)N[C@@H](Cc1ccc(O)cc1)C(=O)O [compound 82] (H-WHWGSLKVGQPMY-OH; N-terminus and C-terminus assumed)', '%', '=', 100);
